- target of assay: human RXFP1 (Homo sapiens)
- Construct: expressed in transfected cells
- assay explanation: RXFP1 cAMP assay (hRXFP1 HEK293 cAMP assay, HTRF)
- Type: cell-based
- test parameters: HEK293 cells stably expressing human RXFP1, 30 min at room temperature, read-out: cAMP hRXFP1 HEK293 Assay EC50
pEC50: −log10 of the molar value.
Label rule, in plain words: pEC50 of 7 and up is true (1), under 7 is false (0).

# compound, assigned label
measured = [
    ("COc1ccc(Cl)cc1C(=O)N[C@@H]1C2CCC(C2=C(C)C)[C@@H]1C(=O)Nc1ccc(F)c(C(F)(F)F)c1 (some centres unmarked)", "false (0)"),
    ("COc1ccc(C2=NOC3CC(C(N)=O)CC23)cc1C(=O)N[C@H]1[C@@H](C(=O)Nc2ccc(F)c(C(F)(F)F)c2)[C@H]2CC[C@@H]1/C2=C\\C(F)(F)F (single isomer, unassigned)", "true (1)"),
    ("COc1ccc(-c2cc(C(N)C(=O)O)ccc2F)cc1C(=O)NC1[C@@H]2CC[C@@H](/C2=C/C2CC2)[C@@H]1C(=O)Nc1ccc(F)c(C(F)(F)F)c1 (some centres unmarked)", "true (1)"),
    ("COc1ccc(-c2cnn3c2CC(O)CC3)cc1C(=O)N[C@H]1[C@@H](C(=O)N[C@@H](C)C2(C)CC2)[C@H]2CC[C@@H]1/C2=C\\C1CC1 (some centres unmarked)", "true (1)"),
    ("CCCC#C/C=C1\\C2CCC1[C@H](C(=O)Nc1ccc(F)c(C(F)(F)F)c1)[C@@H]2NC(=O)c1cc(F)c(F)cc1OC (some centres unmarked)", "false (0)"),
    ("COc1c(F)cc(-c2cnc3n2CC(O)CC3)cc1C(=O)N[C@H]1[C@@H](C(=O)Nc2ccc(F)c(C(F)(F)F)c2)[C@H]2CC[C@@H]1/C2=C\\C1CC1 (some centres unmarked) [compound 751]", "true (1)"),
    ("COc1cc(F)c(F)cc1C(=O)N[C@@H]1C2CCC(/C2=C/C=C/c2ccccc2)[C@@H]1C(=O)Nc1ccc(F)c(C(F)(F)F)c1 (some centres unmarked)", "false (0)"),
    ("COc1cc(F)c(F)cc1C(=O)N[C@@H]1C2CCC(/C2=C/C(=O)OCc2ccccc2)[C@@H]1C(=O)Nc1ccc(F)c(C(F)(F)F)c1 (some centres unmarked)", "false (0)"),
]

Test whether the compound COc1ccc(C2=NOC(CC(C)(C)O)C2)cc1C(=O)N[C@H]1[C@@H](C(=O)NCC(C)(C)C)[C@H]2CC[C@@H]1/C2=C\C1CC1 (some centres unmarked) records pEC50 of 7 or higher. false (0)

Okay, and COc1ccc(-c2cc([C@H](OC(=O)NC3CCC3)C(F)(F)F)ccc2F)cc1C(=O)N[C@H]1[C@@H](C(=O)N[C@H](C)C2(C)CC2)[C@H]2CC[C@@H]1/C2=C\CCC(F)(F)F ? true (1)

Okay, and COc1ccc(-c2cc(C(OC(=O)NC3CCC3)C(=O)O)ccc2F)cc1C(=O)N[C@H]1[C@@H](C(=O)Nc2ccc(F)c(C(F)(F)F)c2)[C@H]2CC[C@@H]1/C2=C\C(C)C (some centres unmarked) ? true (1)

----------
- target of assay: human RXFP1 (Homo sapiens, UniProt Q9HBX9)
- Construct: expressed in transfected cells
- Sequence (Q9HBX9 whole entry): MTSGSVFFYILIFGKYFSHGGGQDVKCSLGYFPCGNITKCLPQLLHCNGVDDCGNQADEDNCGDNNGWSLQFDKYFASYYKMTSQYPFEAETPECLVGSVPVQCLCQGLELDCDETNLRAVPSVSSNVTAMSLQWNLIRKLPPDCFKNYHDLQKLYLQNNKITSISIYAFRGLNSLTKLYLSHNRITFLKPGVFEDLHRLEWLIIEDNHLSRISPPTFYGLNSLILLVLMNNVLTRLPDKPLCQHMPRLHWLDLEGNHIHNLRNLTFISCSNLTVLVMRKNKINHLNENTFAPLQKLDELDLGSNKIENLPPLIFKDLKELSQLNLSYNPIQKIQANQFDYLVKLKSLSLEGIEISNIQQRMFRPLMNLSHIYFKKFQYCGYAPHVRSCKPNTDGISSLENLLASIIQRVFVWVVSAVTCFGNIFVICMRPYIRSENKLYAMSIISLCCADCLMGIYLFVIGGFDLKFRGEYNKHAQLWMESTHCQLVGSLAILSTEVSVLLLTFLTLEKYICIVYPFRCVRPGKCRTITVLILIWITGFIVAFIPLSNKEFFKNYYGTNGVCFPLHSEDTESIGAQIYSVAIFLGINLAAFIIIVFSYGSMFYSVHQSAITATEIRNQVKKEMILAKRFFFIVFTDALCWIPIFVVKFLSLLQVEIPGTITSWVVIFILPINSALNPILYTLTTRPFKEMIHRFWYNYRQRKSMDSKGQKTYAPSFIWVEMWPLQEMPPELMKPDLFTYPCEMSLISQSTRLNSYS
- assay explanation: RXFP1 cAMP assay (hRXFP1 HEK293 cAMP assay, HTRF)
- Assay type: cell-based
- test parameters: HEK293 cells stably expressing human RXFP1, 30 min at room temperature, read-out: cAMP hRXFP1 HEK293 Assay EC50
Quick reference for log10(EC50) among some compounds
Answers are given as log10 of EC50 in nM.

Observe how each entry below is paired with its result.
# compound, quantity kind, reported result
data = [
    ("COc1ccc(C2=NOC(C(=O)O)C2)cc1C(=O)N[C@@H]1C2CCC(/C2=C/C2CCC2)[C@@H]1C(=O)Nc1ccc(F)c(C(F)(F)F)c1 (stereo partly drawn) [compound 387]", "log10(EC50)", 1.04),
    ("COc1ccc(-c2cc(C3=NOC4CC(CO)CC34)ccc2F)cc1C(=O)N[C@H]1[C@@H](C(=O)Nc2ccc(F)c(C(F)(F)F)c2)[C@H]2CC[C@@H]1/C2=C\\C1CC1 (stereo partly drawn) [compound 954]", "log10(EC50)", 0.72),
    ("CONC(=O)OC(c1ccc(F)c(-c2ccc(OC)c(C(=O)N[C@@H]3C4CCC(/C4=C/C4CC4)[C@@H]3C(=O)Nc3ccc(F)c(C(F)(F)F)c3)c2)c1)C(F)(F)F (stereo partly drawn) [compound 214]", "log10(EC50)", 0.30),
    ("COc1ccc(Br)cc1C(=O)N[C@@H]1C2CCC(/C2=C\\c2ccccc2)[C@@H]1C(=O)Nc1ccc(F)c(C(F)(F)F)c1 (stereo partly drawn) [Example 78]", "log10(EC50)", 3.28),
]

For COc1ccc(C2CC3CN(C(=O)OC(C)(C)C)CC32)cc1C(=O)N[C@H]1[C@@H](C(=O)Nc2ccc(F)c(C(F)(F)F)c2)[C@H]2CC[C@@H]1/C2=C\C1CC1 (single isomer, unassigned) [compound 730] , what is its reported log10(EC50)? 2.42

----------
- target of assay: human RXFP1 (Homo sapiens, UniProt Q9HBX9)
- Construct: expressed in transfected cells
- assay explanation: RXFP1 cAMP assay (hRXFP1 HEK293 cAMP assay, HTRF)
- Format: cell-based
- test parameters: HEK293 cells stably expressing human RXFP1, 30 min at room temperature, read-out: cAMP hRXFP1 HEK293 Assay EC50
quantity kind: pEC50
Quick note: pEC50 means taking -log10 of the concentration in moles per liter.

Observe how each entry below is paired with its result.
# compound, pEC50
records = [
    ("COc1c(F)cc(C2=NOC3CC(CO)CC23)cc1C(=O)N[C@@H]1C2CCC(/C2=C/C2CC2)[C@@H]1C(=O)NC12CC(C#N)(C1)C2 (stereo partly drawn)", 8.42),
    ("COc1c(F)cc(C2=NOC3CC(CO)CC23)cc1C(=O)N[C@H]1[C@@H](C(=O)N[C@H](C)C2(C)CC2)[C@H]2CC[C@@H]1/C2=C\\C1CCCC1 (stereo partly drawn)", 9.22),
]

Now consider a different compound.
For COc1ccccc1C(=O)N[C@H]1[C@@H](C(=O)Nc2ccc(F)c(C(F)(F)F)c2)[C@H]2CC[C@@H]1/C2=C\c1ccccc1 , what is its reported pEC50? 6.48

----------
- target of assay: human RXFP1 (Homo sapiens, UniProt Q9HBX9)
- Construct: expressed in transfected cells
- assay explanation: RXFP1 cAMP assay (hRXFP1 HEK293 cAMP assay, HTRF)
- Type: cell-based
- test parameters: HEK293 cells stably expressing human RXFP1, 30 min at room temperature, read-out: cAMP hRXFP1 HEK293 Assay EC50
pEC50: −log10 of the molar value.
Assign a class from recorded pEC50; defined classes: Low (below 7), Medium (7 to below 8), High (8 or more)

# compound, target of assay, assigned label
data = [
    ("COc1cc(C(=O)N[C@H]2[C@@H](C(=O)Nc3ccc(F)c(C(F)(F)F)c3)[C@H]3CC[C@@H]2/C3=C\\C2CC2)cc(C2=NOC3COCC23)c1 (single isomer, unassigned) [compound 696]", "human RXFP1 (Homo sapiens, UniProt Q9HBX9)", "Low"),
    ("O=C(N[C@H]1C(C(=O)Nc2ccc(F)c(C(F)(F)F)c2)[C@H]2CC[C@@H]1/C2=C\\C1CC1)c1cc(C2=NOC3COCC23)ccc1OCC(F)F (some centres unmarked)", "human RXFP1 (Homo sapiens, UniProt Q9HBX9)", "High"),
    ("COc1ccc(C2=NOC3COCC23)cc1C(=O)N[C@H]1[C@@H](C(=O)N[C@H](C)C2(C)CC2)[C@H]2CC[C@@H]1/C2=C\\C1CC1 (some centres unmarked)", "human RXFP1 (Homo sapiens, UniProt Q9HBX9)", "High"),
    ("COc1ccc(-c2cc(C(=O)O)ccc2F)cc1C(=O)N[C@@H]1C2CCC(/C2=C/C2CC2)[C@@H]1C(=O)NC1CCCCC1 (some centres unmarked)", "human RXFP1 (Homo sapiens, UniProt Q9HBX9)", "Low"),
]

Which pEC50 category applies to O=C(N[C@H]1[C@@H](C(=O)NC23CC(F)(C2)C3)[C@H]2CC[C@@H]1/C2=C\C1CC1)c1cc(C2=NOC3CC(CO)CC23)cc(F)c1OCC1CC1 (some centres unmarked) here? High

Okay, and CNC(=O)c1ccc(-c2ccc(OC)c(C(=O)N[C@@H]3C4CCC(/C4=C/c4ccccc4)[C@@H]3C(=O)Nc3ccc(F)c(C(F)(F)F)c3)c2)c(F)c1 (some centres unmarked) ? Medium

Okay, and COc1ccc(C2=NOC3COCC23)cc1C(=O)N[C@H]1[C@@H](C(=O)NCc2cc(C)ccc2C(F)(F)F)[C@H]2CC[C@@H]1/C2=C\C1CC1 (some centres unmarked) ? Low

Okay, and COc1ccc(C2=NOC3CC(CO)CC23)cc1C(=O)N[C@H]1[C@@H](C(=O)Nc2ccc(F)c(C(F)(F)F)c2)[C@H]2CC[C@@H]1C2CC1CCC1 (some centres unmarked) ? Medium

Okay, and COc1ccc(-c2cc(C(OC(=O)NC(C)(C)C)C(F)(F)F)ccc2F)cc1C(=O)N[C@@H]1C2CCC(/C2=C/C2CC2)[C@@H]1C(=O)Nc1ccc(F)c(C(F)(F)F)c1 (some centres unmarked) ? High
